Tested on: Mus musculus
Assay: Percent of animals (n=8) not exhibiting PTZ-induced ( Pentylentetrazol protection) seizures 10 min following a 10 mg/kg ip dose of steroid.
Type: functional
Settings: route intraperitoneal
property-measured: PTZ protection (%)

# compound-string, study-system, property-measured, units-text, recorded-value
records = [
    ("CC(=O)[C@H]1CC[C@H]2[C@@H]3CC[C@@H]4C[C@@](O)(C#Cc5ccccc5)CC[C@]4(C)[C@H]3CC[C@]12C", "Mus musculus", "PTZ protection", "%", 25),
    ("CCOC(=O)c1ccc(C#C[C@@]2(O)CC[C@H]3[C@H](CC[C@@H]4[C@@H]3CC[C@]3(C)[C@@H](C(C)=O)CC[C@@H]43)C2)cc1", "Mus musculus", "PTZ protection", "%", 13),
    ("CCN(CC)C(=O)c1ccc(C#C[C@@]2(O)CC[C@@]3(C)[C@H](CC[C@@H]4[C@@H]3CC[C@]3(C)[C@@H](C(C)=O)CC[C@@H]43)C2)cc1", "Mus musculus", "PTZ protection", "%", 13),
    ("CC(=O)[C@H]1CC[C@H]2[C@@H]3CC[C@@H]4C[C@@](O)(C#Cc5cccc(O)c5)CC[C@]4(C)[C@H]3CC[C@]12C", "Mus musculus", "PTZ protection", "%", 0),
    ("CC(=O)[C@H]1CC[C@H]2[C@@H]3CC[C@@H]4C[C@@](O)(C#Cc5ccc(N)cc5)CC[C@]4(C)[C@H]3CC[C@]12C", "Mus musculus", "PTZ protection", "%", 13),
    ("CC(=O)[C@H]1CC[C@H]2[C@@H]3CC[C@@H]4C[C@@](O)(CCCc5ccccc5)CC[C@]4(C)[C@H]3CC[C@]12C", "Mus musculus", "PTZ protection", "%", 13),
    ("CC(=O)c1ccc(C#C[C@@]2(O)CC[C@@]3(C)[C@H](CC[C@@H]4[C@@H]3CC[C@]3(C)[C@@H](C(C)=O)CC[C@@H]43)C2)cc1", "Mus musculus", "PTZ protection", "%", 75),
    ("CC(=O)[C@H]1CC[C@H]2[C@@H]3CC[C@@H]4C[C@@](O)(Cc5ccccc5)CC[C@]4(C)[C@H]3CC[C@]12C", "Mus musculus", "PTZ protection", "%", 38),
    ("CC(=O)[C@H]1CC[C@H]2[C@@H]3CC[C@@H]4C[C@@](O)(C#Cc5ccc(N(C)C)cc5)CC[C@]4(C)[C@H]3CC[C@]12C", "Mus musculus", "PTZ protection", "%", 50),
    ("CC(=O)[C@H]1CC[C@H]2[C@@H]3CC[C@@H]4C[C@@](O)(C#Cc5ccccc5O)CC[C@]4(C)[C@H]3CC[C@]12C", "Mus musculus", "PTZ protection", "%", 0),
    ("CC(=O)[C@H]1CC[C@H]2[C@@H]3CC[C@@H]4C[C@@](O)(C#Cc5ccc(C)cc5)CC[C@]4(C)[C@H]3CC[C@]12C", "Mus musculus", "PTZ protection", "%", 50),
    ("CC(=O)c1cccc(C#C[C@@]2(O)CC[C@@]3(C)[C@H](CC[C@@H]4[C@@H]3CC[C@]3(C)[C@@H](C(C)=O)CC[C@@H]43)C2)c1", "Mus musculus", "PTZ protection", "%", 0),
]
